Source of measurements: PubChem BioAssay (EPA / NIEHS)

Read-out: Monocyte Chemoattractant Protein-1 (MCP1), CCL2 (gene 6347)
Assay: BSK_LPS_MCP1: BioMAP Diversity Plus: LPS Assay for Monocyte Chemoattractant Protein-1 (MCP1) Biomarker Activity (AID 2283081)
Conditions: primary human HUVEC with PBMC; actives raise or lower the signal
The source made the active and inactive calls. The calls were made as follows: active = hit-call score of the fitted dose curve at least 0.9, where 1 is the maximum; inactive = score below 0.9.
Classes used: label 1 = active, label 0 = inactive

>  <compound>
CC(C)(C)c1cc(C(C)(C)C)c(O)c(C(C)(C)C)c1

>  <classification>
label 0

$$$$
>  <compound>
c1ccc2cc3c(ccc4ccccc43)cc2c1

>  <classification>
label 0

$$$$
>  <compound>
COCC(C)O (stereo unspecified)

>  <classification>
label 0

$$$$
>  <compound>
Oc1cc2ccccc2c2ccccc12

>  <classification>
label 1

$$$$
>  <compound>
Cc1cc(CCN2CCN(c3nsc4ccccc34)CC2)cc2c1NC(=O)CC2(C)C

>  <classification>
label 1

$$$$
>  <compound>
CCc1ccc(CCOc2ccc(CC3SC(=O)NC3=O)cc2)nc1 (stereo unspecified)

>  <classification>
label 0

$$$$
>  <compound>
Nc1cccc2c(N)cccc12

>  <classification>
label 0

$$$$
>  <compound>
NC(=O)N1C(=O)C(C(=O)c2cc(Cl)cs2)c2cc(F)c(Cl)cc21 (stereo unspecified)

>  <classification>
label 1

$$$$
>  <compound>
CC#C[C@]1(O)CC[C@H]2[C@@H]3CCC4=CC(=O)CCC4=C3[C@@H](c3ccc(N(C)C)cc3)C[C@@]21C

>  <classification>
label 1

$$$$
>  <compound>
C=C(C)C(=O)OCCC(F)(F)C(F)(F)C(F)(F)C(F)(F)C(F)(F)C(F)(F)F

>  <classification>
label 0

$$$$
>  <compound>
CC[C@H](c1ccc(O)cc1)[C@@H](CC)c1ccc(O)cc1

>  <classification>
label 1

$$$$
